# TGT: hCA I (Homo sapiens)
# Construct: from tissue; host or cells: human erythrocytes (fresh human blood)
# Sequence (P00915 whole entry): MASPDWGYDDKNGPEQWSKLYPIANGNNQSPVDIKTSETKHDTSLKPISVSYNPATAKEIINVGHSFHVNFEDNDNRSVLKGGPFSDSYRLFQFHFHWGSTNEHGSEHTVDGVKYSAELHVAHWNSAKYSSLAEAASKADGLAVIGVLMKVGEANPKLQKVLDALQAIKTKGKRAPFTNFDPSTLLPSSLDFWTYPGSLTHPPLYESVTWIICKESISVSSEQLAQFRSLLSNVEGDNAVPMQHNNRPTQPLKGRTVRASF
# PROCEDURE_TEXT: Esterase activity assay with 4-nitrophenylacetate as substrate, hCA I
# Format: biochemical
# STUDY_CONDITIONS: 4-nitrophenylacetate substrate, pH 7.4, 25 °C, enzyme purified from human erythrocytes, errors 2–5%, three assays
Just a reminder that ties go to criterion not met: only IC50 strictly below 0.02 µM counts as criterion met.

CN(C)c1ccc(/C=C/C(=O)c2ccc(O[Si]3(Oc4ccc(C(=O)/C=C/c5ccc(N(C)C)cc5)cc4)n4c5c6ccccc6c4N=C4N=C(N=c6c7ccccc7c(n63)=NC3=NC(=N5)c5ccccc53)c3ccccc34)cc2)cc1    criterion met
c1ccc2c(c1)C1=NC2=Nc2c3ccccc3c3n2[Si](OCc2cc(OCCN4CCOCC4)cc(OCCN4CCOCC4)c2)(OCc2cc(OCCN4CCOCC4)cc(OCCN4CCOCC4)c2)n2c(c4ccccc4c2=NC2=NC(=N3)c3ccccc32)=N1    criterion not met
CCN(CC)c1cccc(OCCOCCO[Si]2(OCCOCCOc3cccc(N(CC)CC)c3)n3c4c5ccccc5c3N=C3N=C(N=c5c6ccccc6c(n52)=NC2=NC(=N4)c4ccccc42)c2ccccc23)c1    criterion not met
CC[N+](C)(CC)c1cccc(OCCOCCO[Si]2(OCCOCCOc3cccc([N+](C)(CC)CC)c3)n3c4c5ccccc5c3N=C3N=C(N=c5c6ccccc6c(n52)=NC2=NC(=N4)c4ccccc42)c2ccccc23)c1    criterion not met

Query compound follows.
Prompt: Is IC50 strictly under 0.02 µM for the entry C[N+]1(CCOc2cc(CO[Si]3(OCc4cc(OCC[N+]5(C)CCOCC5)cc(OCC[N+]5(C)CCOCC5)c4)n4c5c6ccccc6c4N=C4N=C(N=c6c7ccccc7c(n63)=NC3=NC(=N5)c5ccccc53)c3ccccc34)cc(OCC[N+]3(C)CCOCC3)c2)CCOCC1 ?
Completion: criterion not met
